Where these numbers come from: ChEMBL document CHEMBL3988442

Tested on: Wolbachia pipientis
Experiment: Anti-Wolbachia Cell-Based Screen
Assay type: functional
Design: scale not given: in the data most compounds retested in dose-response had high values
Settings: 5 µM
The campaign covered roughly 48,000 compounds. About 13,000 (27%) showed an effect of 50% or more. Some of the results follow.
REPORTED_ENDPOINT: Percent Effect (%)

                                    compound  reported_endpoint  result_units  reported_measurement
 0         O=S(=O)(NCCSc1nncn1C1CC1)c1ccccc1     Percent Effect             %                 13.46
 1   CCCN1C[C@H]2CC[C@@H]1CN(Cc1cccc(O)c1)C2     Percent Effect             %                 9.983
 2  O=C(c1ccc2c(c1)[nH]c(=O)n2C1CCCC1)N1CCSCC1     Percent Effect             %                 1.159
 3  O=C(c1cccs1)N1CCOCC2(C1)CN(c1ccccc1)C(=O)CO2 (stereo not drawn)     Percent Effect             %                 85.77
 4  CCCSc1nc(N)c(NC(=O)c2ccc(OC)c(OC)c2)c(=O)[nH]1     Percent Effect             %                -5.573
 5  Fc1cccc(-c2nnn3c2COC(CNCc2nccs2)C3)c1.O=C(O)C(F)(F)F (stereo not drawn)     Percent Effect             %                 -16.9
 6  Cc1cc(C)nc(N2CC=C[C@@H]2C(=O)NCc2ccc3c(c2)OCO3)n1.Cl     Percent Effect             %                 87.31
 7             CN(CCNC(=O)Nc1ccncc1)C1CCCCC1     Percent Effect             %                -10.45
 8             CC(=O)Nc1cc(Br)cnc1OCC(F)(F)F     Percent Effect             %                 -6.07
 9  O=c1[nH]c(CN(Cc2ccco2)C2CCCC2)nc2ccccc12     Percent Effect             %                 5.367
10  Cn1c(C(=O)NC2CCCC2)nc2c1CCN(Cc1ccccc1)C2     Percent Effect             %                 4.267
11  Cn1nc2c(cc1=O)CN(CC1CCCCO1)CC2 (stereo not drawn)     Percent Effect             %                  1.26
12   CCN(CCCNc1ncnc2cc(F)c(F)cc12)S(C)(=O)=O     Percent Effect             %                -17.06
13  O=C(O)C(F)(F)F.O=C(c1cccs1)N1CCOCC2(C1)CN(c1cccnc1)C(=O)CO2 (stereo not drawn)     Percent Effect             %                 114.5
14               Nc1ncc2c(n1)CN(C1CCCC1)C2=O     Percent Effect             %               -0.5678
15   O=S(=O)(c1c(F)cccc1F)N1CCC(Cn2cccn2)CC1     Percent Effect             %                 15.84
16   CNc1ncc(CN(C)Cc2cc(O)c3cccc(Cl)c3n2)cn1     Percent Effect             %                -16.65
17  O=C(O)C(F)(F)F.O=C(c1ccco1)N1CCOCC2(C1)CN(c1cccnc1)C(=O)CO2 (stereo not drawn)     Percent Effect             %                 102.4
18  CCc1n[nH]c(C2CN(C(=O)c3cc(C4CC4)on3)CCO2)n1 (stereo not drawn)     Percent Effect             %                 117.8
19  CCN1CCN(C[C@@H]2CN(c3ncc(Cl)cc3F)C[C@@H]2CO)CC1     Percent Effect             %                 3.895
20  CC(=O)N(C)C1CCCc2nc(C)sc21 (stereo not drawn)     Percent Effect             %                -2.267
21  CC(CNC(=O)NCc1ccc2c(c1)OCO2)CC1(C)OCCO1 (stereo not drawn)     Percent Effect             %                -13.46
22      CCOc1ccc(CN(C)C(=O)COc2ccc(C)nc2)cc1     Percent Effect             %                -6.842
